- measuredTarget: MATE1 (multidrug and toxin extrusion protein 1) (Homo sapiens)
- Sequence (Q96FL8 whole entry): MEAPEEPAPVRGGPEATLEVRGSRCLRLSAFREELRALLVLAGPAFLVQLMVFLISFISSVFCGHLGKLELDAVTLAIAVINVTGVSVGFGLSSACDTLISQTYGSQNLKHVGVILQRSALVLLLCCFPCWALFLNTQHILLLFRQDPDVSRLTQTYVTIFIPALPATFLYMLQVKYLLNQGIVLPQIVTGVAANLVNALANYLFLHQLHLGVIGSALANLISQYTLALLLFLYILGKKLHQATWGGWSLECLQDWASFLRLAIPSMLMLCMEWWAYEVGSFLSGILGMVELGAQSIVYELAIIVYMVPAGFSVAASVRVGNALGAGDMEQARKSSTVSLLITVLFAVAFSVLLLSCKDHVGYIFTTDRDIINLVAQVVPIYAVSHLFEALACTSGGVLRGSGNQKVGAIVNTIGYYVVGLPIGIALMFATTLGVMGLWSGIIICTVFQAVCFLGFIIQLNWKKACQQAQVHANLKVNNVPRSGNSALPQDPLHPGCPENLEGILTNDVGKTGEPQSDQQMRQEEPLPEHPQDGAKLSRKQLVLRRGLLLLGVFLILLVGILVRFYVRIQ
- assayInfo: Inhibition of human MATE1-mediated ASP+ uptake expressed in HEK293 cells at 20 uM after 1.5 mins by fluorescence assay
- Format: cell-based
- cond: HEK293 cells expressing human MATE1, probe ASP+
inhibition at […], 20 µM of 20% or higher: T. Under 20%: F.

Examples with answers:
> print(dat)
                                   molecule                            measuredtarget  assignedclass
1  CCOC(=O)c1ccc(OC(=O)CCCCCNC(=N)N)cc1 [GABEXATE]  MATE1 (multidrug and toxin extrusion protein 1) (Homo sapiens)              T
2  C=C[C@H]1C[N@@]2CC[C@H]1C[C@@H]2[C@@H](O)c1ccnc2ccc(OC)cc12  MATE1 (multidrug and toxin extrusion protein 1) (Homo sapiens)              T
3  COc1ccccc1OCCNCC(O)COc1cccc2[nH]c3ccccc3c12 (centres undefined)  MATE1 (multidrug and toxin extrusion protein 1) (Homo sapiens)              T
4   CNC(=C[N+](=O)[O-])NCCSCc1ccc(CN(C)C)o1  MATE1 (multidrug and toxin extrusion protein 1) (Homo sapiens)              T
5                c1ccc2[nH]c(-c3cscn3)nc2c1  MATE1 (multidrug and toxin extrusion protein 1) (Homo sapiens)              T
6  COc1ccc2c(c1)c(CC(=O)O)c(C)n2C(=O)c1ccc(Cl)cc1  MATE1 (multidrug and toxin extrusion protein 1) (Homo sapiens)              F
7                Cc1cc(C2CCCCC2)n(O)c(=O)c1  MATE1 (multidrug and toxin extrusion protein 1) (Homo sapiens)              T
8  CCOC(=O)[C@H](CCc1ccccc1)N[C@@H](C)C(=O)N1CCC[C@H]1C(=O)O  MATE1 (multidrug and toxin extrusion protein 1) (Homo sapiens)              T

# ---- query molecule ----
Lookup: # bool: inhibition at […], 20 µM of COc1ccc2c(c1OC)C(=O)O[C@@H]2[C@H]1c2c(cc3c(c2OC)OCO3)CCN1C >= 20%
Found: F
